# ASSAY_DETAILS: log P (Table 1)
# Type: physicochemical
ASSAY_READOUT: logP
No unit in the answer, only the number.

Complete the entry with logP for CCCc1nc2ccc(N(CC)C(=O)c3cccs3)cc2c(=O)n1Cc1ccc(-c2ccccc2-c2nnn[nH]2)cc1
3.8

Complete the entry with logP for CCCc1nc2ccc(N(Cc3cccnc3)C(=O)c3ccc(O)cc3)cc2c(=O)n1Cc1ccc(-c2ccccc2-c2nn[nH]n2)cc1
2.8

Complete the entry with logP for CCCOC(=O)N(Cc1ccccc1)c1ccc2nc(CCC)n(Cc3ccc(-c4ccccc4-c4nnn[nH]4)cc3)c(=O)c2c1
5

Complete the entry with logP for CCCCCN(C(=O)c1ccccc1)c1ccc2nc(CCC)n(Cc3ccc(-c4ccccc4NS(=O)(=O)C(F)(F)F)cc3)c(=O)c2c1
5.7

Complete the entry with logP for CCCCCN(C(=O)c1ccc([S+](C)[O-])cc1)c1ccc2nc(CCC)n(Cc3ccc(-c4ccccc4-c4nn[nH]n4)cc3)c(=O)c2c1 (stereo not shown)
4.3

###

# ASSAY_DETAILS: log P (Table 1)
# Format: physicochemical
Some molecules, each annotated with its measured logP.
No unit in the answer, only the number.

Previously resolved entries follow.
Complete the entry with logP for CCc1nc2ccc(N(Cc3ccccc3Cl)C(=O)c3ccccc3)cc2c(=O)n1Cc1ccc(-c2ccccc2-c2nn[nH]n2)cc1
4.4

Complete the entry with logP for CCCc1nc2ccc(N(CCC)C(=O)OCC(C)C)cc2c(=O)n1Cc1ccc(-c2ccccc2-c2nnn[nH]2)cc1
5.1

Complete the entry with logP for CCCc1nc2ccc(N(CCC)C(=O)c3ccc(O)cc3)cc2c(=O)n1Cc1ccc(-c2ccccc2-c2nnn[nH]2)cc1
3.8

Kindly consider the entry below.
Complete the entry with logP for CCCc1nc2ccc(N(Cc3ccccc3)C(=O)OCC)cc2c(=O)n1Cc1ccc(-c2ccccc2-c2nn[nH]n2)cc1
4.7

###

Some compounds, each annotated with its measured logP.
# ASSAY_DETAILS: log P (Table 1)
# Format: physicochemical
No unit in the answer, only the number.

Previously resolved entries follow.
Complete the entry with logP for CCCc1nc2ccc(N(Cc3ccccc3)C(=O)c3ccccn3)cc2c(=O)n1Cc1ccc(-c2ccccc2-c2nn[nH]n2)cc1
3.8

Complete the entry with logP for CCC(C)c1nc2ccc(N(Cc3ccccc3)C(=O)c3ccccc3)cc2c(=O)n1Cc1ccc(-c2ccccc2-c2nn[nH]n2)cc1 (stereo not shown)
4.9

Kindly consider the entry below.
Complete the entry with logP for CCCc1nc2ccc(N(Cc3ccccc3)C(=O)CN3CCN(C(=O)OC(C)(C)C)CC3)cc2c(=O)n1Cc1ccc(-c2ccccc2-c2nnn[nH]2)cc1
5.3

Taken from patent US5385894A.
